Some compounds, each annotated with its measured growth.
# System: SK-MEL-2 melanoma
# TEST SUMMARY: NCI-60 one-dose screen, 48 h (100 = growth as untreated, 0 = no growth, -100 = all killed)
# MEASUREMENT SETUP: 10 µM unless noted
The panel holds about 83,000 compounds, 20% with a hit somewhere; the sample as a whole holds those more often.
Please state the figure in %; there is no need to write the unit.

COMPOUND	MEASUREMENT TARGET	growth, %
CCC(C)NCC(=O)O (centres undefined)	SK-MEL-2 melanoma	85.6
COc1cc(Cn2c(SCC(=O)Nc3ccc(Cl)cc3)nc3ccccc3c2=O)cc(OC)c1OC	SK-MEL-2 melanoma	81

Identify the measured growth of Cc1ccc2c(c1)ncn2-c1ncnc2c1CC(C)c1ccccc1N2C (centres undefined) for SK-MEL-2 melanoma.
32.7

Identify the measured growth of CCCCCCCCCN1C(=O)/C(=c2\sc3n(c2=O)C2C(NN=3)N(CC)C(=O)N2CC)c2ccccc21 (centres undefined) for SK-MEL-2 melanoma.
76.2

Identify the measured growth of `Clc1nc2ccccc2nc1CI` for SK-MEL-2 melanoma.
64.3

Identify the measured growth of `Nc1nn2cc(-c3ccc(Cl)s3)nc2c2ccccc12` for SK-MEL-2 melanoma.
49.9

Identify the measured growth of `O=C(NNC(=S)Nc1ccccc1)c1ccccn1` for SK-MEL-2 melanoma.
85.6

Identify the measured growth of `COc1cc(OC)c(C(=O)/C=C/c2ccc(C(F)(F)F)cc2)c(OC)c1` for SK-MEL-2 melanoma.
45.4

----------
# System: BT-549 breast
# TEST SUMMARY: NCI-60 one-dose screen, 48 h (100 = growth as untreated, 0 = no growth, -100 = all killed)
# MEASUREMENT SETUP: 10 µM unless noted
The panel holds about 83,000 compounds, 20% with a hit somewhere; the sample as a whole holds those more often.
Rule: Yes for growth not less than 50%, No for anything less.

>>> print(df.to_string())
                              smiles_record  measurement_target  class
0  Clc1nc(Cl)c2ncn(C/C=C/Cn3cnc4c(Cl)nc(Cl)nc43)c2n1       BT-549 breast     No
1  Cc1ccc(S(=O)(=O)OCC(=O)Nc2ccc(C(=O)O)c(O)c2)cc1       BT-549 breast    Yes
2              COc1cc2nc(Cl)nc(NCCO)c2cc1OC       BT-549 breast    Yes
3  CC(=O)Nc1nc(C(=O)N2N=C(C)/C(=C/c3ccccc3)C2=O)cs1       BT-549 breast    Yes
4  COc1cc(Cn2c(SCCC(=O)Nc3ccc(F)cc3)nc3ccccc3c2=O)cc(OC)c1OC       BT-549 breast    Yes

Quick check: does `N#Cc1c(NC(=O)c2ccc([N+](=O)[O-])o2)[n+]([O-])c2cc(F)c(F)cc2[n+]1[O-]` have growth greater than or equal to 50%?
Yes

----------
# System: KM12 colon
# TEST SUMMARY: NCI-60 one-dose screen, 48 h (100 = growth as untreated, 0 = no growth, -100 = all killed)
# MEASUREMENT SETUP: 10 µM unless noted
About 83,000 compounds went through this panel and 20% of them were active in at least one assay; those are over-represented in the sample as a whole.
Some compounds, each annotated with its measured growth.
Please state the figure in %; there is no need to write the unit.

Here are 8 compounds together with their reported answers.
>>> print(df.to_string())
                                   compound  observed_result
0  CCCCn1c(=O)c(C2CNC(=O)c3ccccc3N2)cc2ccccc21 (stereo unspecified)              101
1  Cc1cccc(-n2c(C)nc3ccc(NC(=O)NCCCl)cc3c2=O)c1              106
2  COc1ccc(/C=C/C(=O)/C=C/c2cc3ccc(Cl)cc3[nH]c2=O)cc1             72.5
3  O=C1C2=C(C(=O)c3c(O)ccc(O)c31)N(c1cccnc1)Cc1ccccc1O2            -4.03
4  Cc1oc2nc[nH]c(=O)c2c1C(=O)/C=C/c1ccc(Cl)cc1Cl             52.1
5  O=C(/C=C/CN1CCCCC1)Nc1cc2c(Nc3ccc(F)c(Cl)c3F)ncnc2cc1OCCOC(F)F             36.5
6  Cc1cc(NC(=O)COC(=O)c2sc3cc(F)ccc3c2Cl)no1              108
7  C=C1C(=O)O[C@H]2[C@H]1CC/C(Cn1cc(-c3ccccc3C(F)(F)F)nn1)=C\CC[C@@]1(C)O[C@@H]21             36.5

What measured growth goes with `COc1cc(/C=C\c2cc(OC)c(OC)c(OC)c2)cc(N/C=C\C(=O)c2c[nH]c3ccccc23)c1OC` ?
49.2

What measured growth goes with `COc1ccc(NC(=O)CSc2nc3ccccc3c(=O)n2-c2ccccc2C(F)(F)F)c(OC)c1OC` ?
101

What measured growth goes with `CCOC(=O)CC(C#N)(CC(=O)OCC)C(=O)OCC` ?
106
